I'd be grateful if you could share measured pIC50 for these entries.
# MEASUREMENT_TARGET: HA-GST-Rheb (GTP-γ-S loaded) activating mTORC1 (Homo sapiens (Human))
# Sequence (Q15382 1-181): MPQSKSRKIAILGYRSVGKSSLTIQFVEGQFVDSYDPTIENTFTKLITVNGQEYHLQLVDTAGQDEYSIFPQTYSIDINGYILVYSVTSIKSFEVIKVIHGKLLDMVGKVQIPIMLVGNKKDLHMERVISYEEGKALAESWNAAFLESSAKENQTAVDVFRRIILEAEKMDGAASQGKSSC
# ASSAY_NAME: Rheb-dependent in vitro kinase assay (Rheb-IVK; LanthaScreen or Western readout)
# Type: biochemical
# APPLIED_CONDITIONS: Rheb-dependent in vitro kinase assay; read-out: IVK IC50
pIC50: −log10 of the molar value.

(Q) So what's the measured pIC50 for this one? `CN(C)C(=O)c1ccc(Cn2c(C#N)cc3c(Br)cc(Sc4ccc(Cl)c(Cl)c4)cc32)cc1`
(A) < 4.00

(Q) So what's the measured pIC50 for this one? `OCc1cc2c(Cl)cc(Oc3ccccc3)cc2n1Cc1c[nH]cn1`
(A) < 4.00

(Q) So what's the measured pIC50 for this one? `COC(=O)c1cc(Sc2ccc(Cl)cc2)c2cc[nH]c2c1`
(A) < 4.00

(Q) So what's the measured pIC50 for this one? CC(O)c1cc2c(Oc3ccccc3)cc(Cl)cc2[nH]1 (centres unmarked)
(A) 4.00 to 5.00

(Q) So what's the measured pIC50 for this one? `O=C(O)c1nc2c(OCC3CCCCC3)c(Cl)c(Cl)cc2[nH]1`
(A) 4.00 to 5.00

(Q) So what's the measured pIC50 for this one? `Clc1ccc(COc2cc3nc(-c4ccncc4)[nH]c3c(Cl)c2Cl)cc1`
(A) 4.00 to 5.00

(Q) So what's the measured pIC50 for this one? `CN1CCC[C@@H]1CNC(=O)c1ccc(-c2nc3cc(Cl)c(Cl)cc3[nH]2)cc1`
(A) < 4.00

(Q) So what's the measured pIC50 for this one? CN1CCC(NC(=O)c2ccc(Cn3c(C(=O)O)cc4c(Br)cc(Oc5ccccc5)cc43)cc2)C1 (centres unmarked)
(A) < 4.00

(Q) So what's the measured pIC50 for this one? `Cn1c(CO)cc2c(Sc3ccc(Cl)cc3)cc(Cl)cc21`
(A) < 4.00

(Q) So what's the measured pIC50 for this one? CC(c1ccc(C(=O)N(C)C)cc1)n1c(C(=O)O)cc2c(Br)cc(Sc3ccc(Cl)c(Cl)c3)cc21 (centres unmarked)
(A) > 5.00

(Q) So what's the measured pIC50 for this one? `O=C(O)c1cc(Sc2ccc(Cl)cc2)c2cc[nH]c2c1`
(A) < 4.00

(Q) So what's the measured pIC50 for this one? `Clc1cccc(Oc2cccc3[nH]ccc23)c1`
(A) 4.00 to 5.00

(Q) So what's the measured pIC50 for this one? `OCc1cc2cc(Sc3ccccc3)ccc2n1Cc1nc[nH]n1`
(A) < 4.00

(Q) So what's the measured pIC50 for this one? `Clc1cc2nc(-c3ncco3)n(Cc3ccc(-c4nn[nH]n4)cc3)c2cc1Cl`
(A) 3.52 to 4.00

(Q) So what's the measured pIC50 for this one? `N#Cc1ccc(Cn2c(-c3ncco3)nc3cc(Cl)c(Cl)cc32)cc1`
(A) < 4.00

(Q) So what's the measured pIC50 for this one? `Nc1ncccc1COc1c(Cl)c(Cl)cc2[nH]c(CO)nc12`
(A) < 4.00

(Q) So what's the measured pIC50 for this one? `OCc1nc2cc(OCc3ccccc3)c(Cl)cc2n1Cc1ccc(-c2nnn[nH]2)cc1`
(A) < 5.52

(Q) So what's the measured pIC50 for this one? `OCc1cc2c(Br)cc(OCCc3ccccc3)cc2[nH]1`
(A) 4.00 to 5.00

(Q) So what's the measured pIC50 for this one? `Clc1ccc(Cl)c(Sc2cccc3[nH]ccc23)c1`
(A) 4.00 to 5.00

(Q) So what's the measured pIC50 for this one? `Cn1c(CO)cc2c(Oc3ccccc3Cl)cccc21`
(A) < 4.00

(Q) So what's the measured pIC50 for this one? `CC(C)(C)OC(=O)c1ccc(Cn2c(C(=O)O)cc3c(Br)cc(Sc4ccc(Cl)c(Cl)c4)cc32)cc1`
(A) 4.00 to 5.00

(Q) So what's the measured pIC50 for this one? `O=C(O)c1cc2c(Sc3ccc(Cl)c(Cl)c3)cc(Sc3ccc(Cl)c(Cl)c3)cc2[nH]1`
(A) > 5.00

(Q) So what's the measured pIC50 for this one? `O=C(O)c1cc2c(Oc3cccc4cnccc34)cc(Cl)cc2[nH]1`
(A) 3.52 to 4.00

(Q) So what's the measured pIC50 for this one? `Nc1ccc(-c2nc3cc(Cl)c(Cl)cc3[nH]2)cc1`
(A) < 4.00

(Q) So what's the measured pIC50 for this one? `COC(=O)c1ccc(-c2nc3cc(Cl)c(Cl)cc3[nH]2)cc1`
(A) 4.00 to 5.00

(Q) So what's the measured pIC50 for this one? `O=S(=O)(c1ccc(Cl)cc1)c1cccc2[nH]ccc12`
(A) < 4.00

(Q) So what's the measured pIC50 for this one? `CN1CCN(C(=O)c2ccc(Cn3c(C(=O)O)cc4c(Br)cc(Oc5ccccc5)cc43)cc2)CC1`
(A) < 5.52

(Q) So what's the measured pIC50 for this one? `CN1CCC(CNC(=O)c2cc3c(Sc4ccc(Cl)cc4Cl)cc(Cl)cc3[nH]2)CC1`
(A) > 5.00

(Q) So what's the measured pIC50 for this one? `O=C(O)c1cc2c(-c3ccccc3)cc(Cl)cc2[nH]1`
(A) 3.52 to 4.00

(Q) So what's the measured pIC50 for this one? `CC(C)(C)OC(=O)c1ccc(Cn2ccc3c(Br)cc(Oc4ccccc4)cc32)cc1`
(A) < 4.00

(Q) So what's the measured pIC50 for this one? `Clc1ccc(Sc2cccc3[nH]ccc23)cc1Cl`
(A) < 4.00

(Q) So what's the measured pIC50 for this one? `Cn1c(CO)cc2c(Oc3ccccc3)c(Cl)ccc21`
(A) < 4.00

(Q) So what's the measured pIC50 for this one? `CCn1c(CO)nc2cc(OCc3ccccc3)cc(Cl)c21`
(A) < 4.00

(Q) So what's the measured pIC50 for this one? `O=C(O)c1cc2c(Sc3ccc(F)cc3)cc(Cl)cc2[nH]1`
(A) 4.00 to 5.00

(Q) So what's the measured pIC50 for this one? `OCc1cc2c(Br)cc(OCc3ccccc3)cc2[nH]1`
(A) 4.00 to 5.00

(Q) So what's the measured pIC50 for this one? `CN(C)C(=O)c1ccc(Cn2c(C(=O)O)cc3c(Br)cc(SCc4ccc(Cl)c(Cl)c4)cc32)cc1`
(A) < 4.00

(Q) So what's the measured pIC50 for this one? OCc1nc2c(OC[C@H]3CCCC[C@@H]3O)c(Cl)c(Cl)cc2n1Cc1nn[nH]n1 (racemic)
(A) 4.00 to 5.00

(Q) So what's the measured pIC50 for this one? `CCn1c(CO)nc2cc(Cl)c(OCCc3ccccc3)cc21`
(A) < 4.00

----------
I'd be grateful if you could share measured IC50 for these entries.
# MEASUREMENT_TARGET: HA-GST-Rheb (GTP-γ-S loaded) activating mTORC1 (Homo sapiens (Human))
# ASSAY_NAME: Rheb-dependent in vitro kinase assay (Rheb-IVK; LanthaScreen or Western readout)
# Assay type: biochemical
# APPLIED_CONDITIONS: Rheb-dependent in vitro kinase assay; read-out: IVK IC50

(Q) So what's the measured IC50 for this one? `Clc1ccccc1Sc1cccc2[nH]ccc12`
(A) 10 to 100 µM

(Q) So what's the measured IC50 for this one? `O=C(Nc1cccnc1)c1ccc(Cn2c(C(=O)O)cc3c(Br)cc(Oc4ccccc4)cc32)cc1`
(A) 10 to 100 µM

(Q) So what's the measured IC50 for this one? `Clc1cc2[nH]c(-c3ccncc3)nc2c(OCC2CCCCC2)c1Cl`
(A) > 100 µM

(Q) So what's the measured IC50 for this one? `Clc1cc2nc(-c3ccnc(-c4ccccc4)c3)[nH]c2cc1Cl`
(A) > 100 µM

(Q) So what's the measured IC50 for this one? `O=C(NCCN1CCCC1)c1cc2c(Sc3ccc(Cl)cc3)cc(Cl)cc2[nH]1`
(A) 10 to 100 µM

(Q) So what's the measured IC50 for this one? `CN1CCC[C@H]1CNC(=O)c1ccc(-c2nc3cc(Cl)c(Cl)cc3[nH]2)cc1`
(A) > 100 µM

(Q) So what's the measured IC50 for this one? `OCc1nc2cc(OCc3ccccc3)c(Cl)cc2[nH]1`
(A) > 100 µM

(Q) So what's the measured IC50 for this one? `c1ccc(Oc2cccc3nc(-c4ncco4)n(Cc4ccc(-c5nn[nH]n5)cc4)c23)cc1`
(A) > 100 µM

(Q) So what's the measured IC50 for this one? `OCc1cc2c(Oc3ccccc3)c(Cl)ccc2[nH]1`
(A) 100 to 300 µM

(Q) So what's the measured IC50 for this one? O=C1CCCC(COc2c(Cl)c(Cl)cc3[nH]c(CO)nc23)N1 (stereo not shown)
(A) 100 to 300 µM

(Q) So what's the measured IC50 for this one? `Cn1ccc2c(OC3CCNCC3)cccc21`
(A) > 100 µM

(Q) So what's the measured IC50 for this one? `CN1CCC(CNC(=O)c2nc3cc(OCc4ccc(Cl)cc4)c(Cl)c(Cl)c3[nH]2)CC1`
(A) > 3 µM

(Q) So what's the measured IC50 for this one? `O=C(O)c1cc2c(Sc3cccc(OC(F)(F)F)c3)cc(Cl)cc2[nH]1`
(A) 10 to 100 µM

(Q) So what's the measured IC50 for this one? OCc1nc2c(OC[C@H]3CNCC[C@H]3O)c(Cl)c(Cl)cc2[nH]1 (racemic)
(A) > 100 µM

(Q) So what's the measured IC50 for this one? `O=C(O)c1cc2c(Sc3ccc(Cl)cc3Cl)cc(Cl)cc2n1Cc1ccc(Br)cc1`
(A) > 100 µM

(Q) So what's the measured IC50 for this one? `Nc1ccc(-c2ccc(Cn3c(C(=O)O)cc4c(Sc5ccc(Cl)cc5Cl)cc(Cl)cc43)cc2)cc1`
(A) < 10 µM

(Q) So what's the measured IC50 for this one? `C=Cc1nc2c(OCC3CCCCC3)c(Cl)c(Cl)cc2[nH]1`
(A) > 100 µM

(Q) So what's the measured IC50 for this one? `OCc1cc(Sc2ccc(Cl)cc2)c2cc[nH]c2c1`
(A) 10 to 100 µM

(Q) So what's the measured IC50 for this one? `O=C(O)c1cc2c(Cl)cc(-c3ccccc3)cc2[nH]1`
(A) 10 to 100 µM
